Kindly state CC50 at 48 h for each of the entries shown.
Assay: Cytotoxicity against human THP-1 cells assessed as reduction in cell viability incubated for 48 hrs by resazurin assay
Type: toxicity, cell-based
Give a bare numeral; the unit µg/mL is implied.

CC50 at 48 h for CC1=C(C(=O)NCc2cn(-c3ccc(C)cc3)nn2)C(c2ccc(Cl)cc2)C2=C(CC(C)(C)CC2=O)N1 (stereo not given) is 44.3

CC50 at 48 h for CC1=C(C(=O)NCc2cn(-c3ccccc3)nn2)C(c2ccc(Cl)cc2)C2=C(CC(C)(C)CC2=O)N1 (stereo not given) is 66.4

CC50 at 48 h for COc1ccc(-n2cc(CNC(=O)C3=C(C)NC4=C(C(=O)CC(C)(C)C4)C3c3ccc(Cl)cc3)nn2)cc1 (stereo not given) is 64.6

----------
Assay: Half life in Sprague-Dawley rat at 50 mg/kg, po measured for 5 to 1440 mins by LC-MS/MS analysis
Assay type: ADME, organism-based
Settings: in vivo, time 5-1440 min
measured endpoint: half-life
Please report the result as a number followed by the unit.

half-life for CC1=C(C(=O)NCc2cn(-c3ccc(C)cc3)nn2)C(c2ccc(F)cc2)C2=C(CC(C)(C)CC2=O)N1 (stereo unspecified) is 4.16 h

----------
Experiment: Stability of compound in simulated intestinal fluid assessed as remaining compound at pH 6.8 measured upto 120 mins by UPLC analysis
Assay type: ADME
Conditions: read-out: Stability
measured endpoint: remaining at 2 h

remaining at 2 h for CC1=C(C(=O)NCc2cn(-c3ccc(C)cc3)nn2)C(c2ccc(F)cc2)C2=C(CC(C)(C)CC2=O)N1 (stereo unspecified) is ≥ 70%

----------
Assay: Stability of compound in rat plasma assessed as remaining compound measured upto 120 mins by UPLC analysis
Format: ADME, cell-free
Conditions: read-out: Stability
measured endpoint: remaining at 2 h

remaining at 2 h for CC1=C(C(=O)NCc2cn(-c3ccc(C)cc3)nn2)C(c2ccc(F)cc2)C2=C(CC(C)(C)CC2=O)N1 (stereo unspecified) is ≥ 70%

----------
Assay: Stability of compound in simulated gastric fluid assessed as remaining compound at pH 1.2 measured upto 120 mins by UPLC analysis
Format: ADME
Details: read-out: Stability
measured endpoint: remaining at 2 h

remaining at 2 h for CC1=C(C(=O)NCc2cn(-c3ccc(C)cc3)nn2)C(c2ccc(F)cc2)C2=C(CC(C)(C)CC2=O)N1 (stereo unspecified) is ≥ 70%

----------
Kindly state selectivity ratio for each of the entries shown.
Experiment: Selectivity index, ratio of CC50 for cytotoxicity against human THP-1 cells to MIC90 for antitubercular activity against Mycobacterium tuberculosis H37Ra
Type: toxicity, cell-based
Settings: read-out: Selectivity Index

selectivity ratio for CC1=C(C(=O)NCc2cn(-c3ccc(C)cc3)nn2)C(c2ccc(Cl)cc2)C2=C(CC(C)(C)CC2=O)N1 (stereo not given) is 6.88

selectivity ratio for COc1ccc(-n2cc(CNC(=O)C3=C(C)NC4=C(C(=O)CC(C)(C)C4)C3c3ccc(Cl)cc3)nn2)cc1 (stereo not given) is 9.73

selectivity ratio for CC1=C(C(=O)NCc2cn(-c3ccccc3)nn2)C(c2ccc(Cl)cc2)C2=C(CC(C)(C)CC2=O)N1 (stereo not given) is 10.6

selectivity ratio for COc1ccc(-n2cc(CNC(=O)C3=C(C)NC4=C(C(=O)CC(C)(C)C4)C3c3ccc(F)cc3)nn2)cc1 (stereo not given) is > 16

selectivity ratio for CC1=C(C(=O)NCc2cn(-c3ccc(C)cc3)nn2)C(c2ccc(F)cc2)C2=C(CC(C)(C)CC2=O)N1 (stereo not given) is > 16

Data provenance is ChEMBL document CHEMBL5576152.
